Origin of measurements: paper PMC7826789

Items are presented alongside their recorded Percent Control.
Test system: PIK3C2B
testContext: Compound Concentration (nM):1000;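 further: KINOMEscan scanMAX binding as percent activity remaining versus control; lower means stronger binding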
Note: unit % is implicit; provide only the numeric part.

Below, 3 compounds whose answers are already recorded.
{"compound": "COc1ccc2cc(-c3c(-c4ccncc4)nc(-c4ccc(S(C)(=O)=O)cc4C)n3C)ccc2c1", "Percent Control / %": 76}
{"compound": "CN(C)CCNC(=O)Nc1ccc(N(C)c2ccnc(Nc3ccc(CS(C)(=O)=O)cc3)n2)cc1.Cl [GW830900A]", "Percent Control / %": 100}
{"compound": "O=C1Nc2ccc(C(=O)c3ccco3)cc2C1=Cc1cc(Cl)c(O)c(Cl)c1 [GW406108X]", "Percent Control / %": 12}

Dear colleague, I am looking for the recorded Percent Control of the following compound: Cl.c1ccc(Cc2nc3ccc(Nc4ncnc5ccccc45)cc3[nH]2)cc1 [GR269666A]
100

Consider the compound shown here: COc1cc(N2CCN(C(C)C)CC2)ccc1Nc1nc(Nc2ccc(F)cc2C(=O)NC[C@@H](O)CO)c2cc[nH]c2n1 [GSK1392956A] What is its recorded Percent Control?
100

Could you tell me which Percent Control is on file for NS(=O)(=O)c1ccc(N/N=C2\C(=O)Nc3ccc(-c4cnco4)cc32)cc1 ?
86

Look up Percent Control: COc1cc2ncnc(Nc3ccc4c(cnn4Cc4ccccc4)c3)c2cc1OC.Cl [GW282449A]
100

Given COc1cccc(-c2c[nH]c3c(N/N=C/c4ccncc4)ncnc23)c1 [GW814408X] , state its recorded Percent Control.
100

Which measured Percent Control value corresponds to CC1=C(C(=O)Nc2ccc3[nH]ncc3c2)C(c2ccc(Cl)c(Cl)c2)CC(=O)N1 (stereo not drawn) [GSK299115A] ?
84

---

Percent Control reference
Tested on: TYK2(JH2domain-pseudokinase)
testContext: Compound Concentration (nM):1000
State the answer as a number, implicitly in %.

For orientation, consider the following solved cases.
{"compound": "O=C1Nc2ccc(C(=O)c3ccco3)cc2C1=Cc1cc(Cl)c(O)c(Cl)c1 [GW406108X]", "Percent Control [%]": 41}
{"compound": "COc1cc(C=NNc2ncnc3c2cnn3-c2ccccc2)ccc1O [GW513184X]", "Percent Control [%]": 8}
{"compound": "CN(C)CCNC(=O)Nc1ccc(N(C)c2ccnc(Nc3ccc(CS(C)(=O)=O)cc3)n2)cc1.Cl [GW830900A]", "Percent Control [%]": 49}

Give the measured Percent Control of NS(=O)(=O)c1ccc(N/N=C2\C(=O)Nc3ccc(Cl)cc32)cc1 [GW280670X] .
100

Query (compound): CCc1ccc(Oc2nccc(-c3c(-c4ccc(F)cc4)ncn3C3CCNCC3)n2)cc1 ; field requested: Percent Control
100

Look up Percent Control for this compound: CC1=C(C(=O)Nc2ccc3[nH]ncc3c2)C(c2ccc(Cl)c(Cl)c2)CC(=O)N1 (centres unmarked) [GSK299115A]
100

So what's the measured Percent Control for this one? Nc1ncnc2occ(-c3ccc(NC(=O)Nc4cc(C(F)(F)F)ccc4F)cc3)c12 [GW770249X]
100

# query: Percent Control of entry CN1CCN(C(=O)c2ccc(NC(=O)Nc3ccc(N(C)c4ccnc(Nc5ccc(CS(C)(=O)=O)cc5)n4)cc3)cc2)CC1.Cl [GW830263A]
6.5
